Measured neutralization IC50 values are reported for all entries that follow.
molecular target: HIV-1 Env of Q168.a2 (HIV-1); assay: cell-based or functional assay
Experimental endpoint: neutralization IC50

{"Binder": "CAP256-VRC26.05 (antibody, V domains shown) VH: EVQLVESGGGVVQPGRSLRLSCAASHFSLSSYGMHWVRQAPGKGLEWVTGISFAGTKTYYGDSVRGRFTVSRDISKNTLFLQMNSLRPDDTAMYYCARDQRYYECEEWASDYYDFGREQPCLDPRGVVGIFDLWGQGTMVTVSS VL: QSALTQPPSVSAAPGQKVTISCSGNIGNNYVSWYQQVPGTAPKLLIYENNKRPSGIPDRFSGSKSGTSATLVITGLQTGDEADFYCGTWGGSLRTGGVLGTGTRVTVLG", "Experimental endpoint": "neutralization IC50", "Experimental result": "> 50 µg/mL"}
{"Binder": "CAP256-VRC26.11 (antibody, V domains shown) VH: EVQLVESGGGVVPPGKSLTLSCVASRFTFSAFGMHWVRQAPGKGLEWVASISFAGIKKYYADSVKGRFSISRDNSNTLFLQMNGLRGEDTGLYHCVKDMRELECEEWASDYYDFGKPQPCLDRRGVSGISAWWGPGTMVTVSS VL: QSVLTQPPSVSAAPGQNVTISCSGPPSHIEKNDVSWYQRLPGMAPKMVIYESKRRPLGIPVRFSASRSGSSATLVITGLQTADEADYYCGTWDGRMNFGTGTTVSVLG", "Experimental endpoint": "neutralization IC50", "Experimental result": "> 50 µg/mL"}
{"Binder": "CAP256-VRC26.03 (antibody, V domains shown) VH: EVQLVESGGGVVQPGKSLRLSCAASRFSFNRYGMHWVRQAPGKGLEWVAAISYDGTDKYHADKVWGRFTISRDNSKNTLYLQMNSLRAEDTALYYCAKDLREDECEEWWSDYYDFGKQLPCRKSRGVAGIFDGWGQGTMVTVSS VL: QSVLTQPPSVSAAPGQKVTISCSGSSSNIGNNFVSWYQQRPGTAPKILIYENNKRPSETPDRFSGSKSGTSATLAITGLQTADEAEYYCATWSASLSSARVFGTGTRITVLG", "Experimental endpoint": "neutralization IC50", "Experimental result": "> 50 µg/mL"}

Source: patent US20200199204A1
